assaySummary: Phase I study CXR1002-001: plasma pharmacokinetics (LC-MS/MS)
Assay type: in vivo, human
cond: human, plasma, oral, 300 mg, Patient 011 Dose 300 mg; 506 hr; read-out: Concentration
attributeMeasured: concentration at 506 h (µM)
Give a bare numeral; the unit µM is implied.

Notebook: `O=C(O)C(F)(F)C(F)(F)C(F)(F)C(F)(F)C(F)(F)C(F)(F)C(F)(F)F` , concentration at 506 h read as 204

----------
assaySummary: Phase I study CXR1002-001: plasma pharmacokinetics (LC-MS/MS)
Format: in vivo, human
cond: human, plasma, oral, 200 mg, Patient 008 Dose 200 mg; 842 hr; read-out: Concentration
attributeMeasured: concentration at 842 h (µM)
Give a bare numeral; the unit µM is implied.

Notebook: O=C(O)C(F)(F)C(F)(F)C(F)(F)C(F)(F)C(F)(F)C(F)(F)C(F)(F)F [CXR1002] , concentration at 842 h read as 361

The measured values listed here are drawn from patent US20130029928A1.
